Hey, just so you know, these numbers are from patent US20240218057A1.

Some binders, each annotated with its measured EC50.
- system name: T1, SARS-COV-2 RBD (SARS-COV-2, UniProt P0DTC2 319-539)
- T1 construct: also called WT RBD
- test name: ELISA, RBD coated
Only the number, expressed in ng/mL, is required.

[[record]]
binder = "C982 (antibody, V domains shown, IgG; V domains only) VH: EVQLVESGGGLVQPGGSLRLSCAASGFTFSNYDMHWVRQPTGGGLEWVSAIGTAGDTYYLASVKGRFTISRENAKNSLSLQMNSLRAGDTAVYYCVRGDTLVQGVIKAYYYYFMDVWGQGITVTVSS VL: DIQMTQSPSSLSASVGDRVTITCRASQNISRYLNWYQQKPGKAPRLLIYAASTLQSGVPSRFSASGSGTDFTLTITNLQPEDFAVYYCQQTYVMPPYTLAQGTKLEIK"
observed_measurement = 2.56


We next turn to a different binder, shown below.
Consider the binder shown here: C995 (antibody, V domains shown, IgG; V domains only) VH: EVQLVESGGGLIQPGRSLRLSCTASGFSVGDYAMSWFRQAPGKGLEWVGFLRNQHYGGTAEYAASVKGRFSISTDASKNIVYLQMDSLKTEDTAVYYCARNDRYIVIVPAEMLYWGQGTLVTVSS VL: EIVMTQSPATLSVSPGERATLSCRATESVYSNLAWYQQKPGQAPRLLMYDASTRAPGIPARFSGSGSGTEFTLTISSLQSEDFATYYCQQYSNWPPITFGQGTRLEIK What is its recorded EC50?
3.79
